- Tested on: NOMO1
- measurement-description: cell viability relative to DMSO control; higher = less cytotoxic
- protocol-conditions: HPLM + 10% dialyzed FBS; 48 h; 0.000781 µM

molecule	target-or-system	cell viability, %
CO[C@H]1C[C@@H]2CC[C@@H](C)[C@@](O)(O2)C(=O)C(=O)N2CCCC[C@H]2C(=O)O[C@H]([C@@H](C)C[C@@H]2CC[C@@H](O)[C@H](OC)C2)CC(=O)[C@H](C)/C=C(\C)[C@@H](O)[C@@H](OC)C(=O)[C@H](C)C[C@H](C)/C=C/C=C/C=C/1C	NOMO1	106
Cc1cc(/C=c2/sc3nc4ccccc4n3c2=O)c(C)n1-c1ccccc1	NOMO1	117
COc1cc(N2CCC(N3CCN(C)CC3)CC2)ccc1Nc1ncc(Cl)c(Nc2ccccc2[S+](=O)([O-])C(C)C)n1	NOMO1	69.2
CC(C)(C)NCC(O)c1ccc(O)c(CO)c1 (stereo not drawn)	NOMO1	100
CC1(C)[C@@H](O)CC[C@@]2(C)[C@H]1CC[C@]3(C)[C@@H]2C(=O)\C=C/4[C@@H]5C[C@](C)(CC[C@]5(C)CC[C@@]34C)C(O)=O	NOMO1	102
Cc1cnc(Nc2cccc(CN3CCOCC3)c2)nc1Nc1cccc([S+](=O)([O-])NC(C)(C)C)c1	NOMO1	87.9
CCC(=O)NC[C@H](Cc1ccc(OCCc2nc(-c3ccccc3)oc2C)cc1)N/C(C)=C\C(=O)c1ccc(C(F)(F)F)cc1	NOMO1	98.9
OC(=O)CNC(=O)\C1=C(/O)C2=CC=CC=C2N(CC3=CC=CC=C3)C1=O	NOMO1	98.2
c1coc(CNc2ncnc3nc[nH]c23)c1	NOMO1	120
NCCOc1cc(C(=O)Nc2cc(OCCN)c3ccccc3n2)nc(C(=O)Nc2cc(OCCN)c3ccccc3n2)c1	NOMO1	65.8
CCC(=O)O[C@@]1(CC[C@H]2[C@@H]3CCC/4=C/C(=O)CC[C@]4(C)[C@H]3CC[C@]12C)C(=O)CO	NOMO1	75.8
C[C@@H](Cc1cc2c(c(C(N)=O)c1)N(CCCO)CC2)NCCOc1ccccc1OCC(F)(F)F	NOMO1	94.5
Clc1ccc(C(c2ccc(Cl)cc2)[n+]2ccn(CC(OCc3ccc(Cl)cc3Cl)c3ccc(Cl)cc3Cl)c2)cc1 (stereo not drawn)	NOMO1	108
COc1cc2cc(c1Cl)N(C)C(=O)C[C@H](OC(=O)C(C)C)[C@]1(C)O[C@@H]1[C@H](C)[C@@H]1C[C@@](O)(NC(=O)O1)[C@H](OC)/C=C/C=C(\C)C2	NOMO1	55.5
CC(C)(Sc1cc(C(C)(C)C)c(O)c(C(C)(C)C)c1)Sc1cc(C(C)(C)C)c(O)c(C(C)(C)C)c1	NOMO1	88.5
CC[C@H]1OC(=O)[C@H](C)[C@@H](O[C@H]2C[C@@](C)(OC)[C@@H](O)[C@H](C)O2)[C@H](C)[C@@H](O[C@@H]2O[C@H](C)C[C@H](N(C)C)[C@H]2O)[C@](C)(O)C[C@@H](C)/C(=N\OCOCCOC)[C@H](C)[C@@H](O)[C@]1(C)O	NOMO1	101
CCN1\C=C(C(O)=O)/C(=O)C2=C1C(=C(N3CCNC(C)C3)C(=C2)F)F (stereo not drawn)	NOMO1	101
C#CCC(Cc1cnc2nc(N)nc(N)c2n1)c1ccc(C(=O)N[C@@H](CCC(=O)O)C(=O)O)cc1 (stereo partly drawn)	NOMO1	124
O=C(O)c1cccc(-c2noc(-c3ccccc3F)n2)c1	NOMO1	106
CC1=CC/2=C(C=C1C)N(C[C@@H](O)[C@@H](O)[C@@H](O)CO)C/3=N/C(=O)NC(=O)C3=N2	NOMO1	130
CCCCN1CCC(CNC(=O)c2c3n(c4ccccc24)CCCO3)CC1	NOMO1	104
COC(=O)CCC1=C(C)C2=CC3=NC(=CC4=C(C)C(=C([NH]4)C=C\5N=C(C=C1[NH]2)\C(=C5C)CCC(O)=O)C=C)\C6=C\C=C(/[C@@H](C(=O)OC)[C@@]36C)C(=O)OC	NOMO1	95.4
COc1ccc(/C=C/C(=O)Nc2ccccc2C(=O)O)cc1OC	NOMO1	119
